Test system: human PCSK9 locus
measurementNotes: Secreted PCSK9 by ELISA (normalized to total cell count) in Huh7 cells transfected with mRNA and gRNA
Assay type: cell-based
conditionNotes: 25 ng mRNA:12.5 ng gRNA; paired with LTRP5-ADD-ZIM3 mRNA; Huh7 cells; 6 days post-transfection; normalized to total cell count
Form field: Secreted PCSK9 (one value per entry).
Write the value in ng/mL as a bare number.

INSERT INTO results (substance, targetorsystem, endpointname, readoutnumber) VALUES
  ('UGAACAUGGUGUGUAAAAGG (listed as RNA, chemistry not given here) [spacer 6.131, Promoter]', 'human PCSK9 locus', 'Secreted PCSK9', 57.89),
  ('AAACUUAGCCUGGACCCCCU (listed as RNA, chemistry not given here) [spacer 6.140, Promoter]', 'human PCSK9 locus', 'Secreted PCSK9', 59.94),
  ('TG-06-1046 (guide UCUCUUACAUGGGGGGAAAC; listed as RNA, chemistry not given here)', 'human PCSK9 locus', 'Secreted PCSK9', 76.27);

Q: Requested field: Secreted PCSK9. Item: TG-06-250 (guide GAUUUGGUUUGGAAAACAUG; listed as RNA, chemistry not given here)
A: 80.42

Q: Requested field: Secreted PCSK9. Item: CGCGCCCUGCUCCUGAACUU (listed as RNA, chemistry not given here) [spacer 6.160, Exon 1]
A: 48.67

Q: Requested field: Secreted PCSK9. Item: GCCGGGCCCACCUUUUCAGU (listed as RNA, chemistry not given here) [spacer 6.148, Promoter]
A: 44.77

###

System: human PCSK9 locus
measurementNotes: Secreted PCSK9 by ELISA (normalized to total cell count) in Huh7 cells transfected with mRNA and gRNA
Format: cell-based
conditionNotes: 50 ng mRNA:25 ng gRNA; paired with LTRP5-ADD-ZIM3 mRNA; Huh7 cells; 6 days post-transfection; normalized to total cell count
// label 0 strictly below 50 ng/mL in Secreted PCSK9; label 1 otherwise

Example results:
INSERT INTO assay_data (seqstring, group) VALUES
  ('GAGUGAAAUGGCCUGCUCUG (listed as RNA, chemistry not given here) [spacer 6.118, Promoter]', 'label 0'),
  ('AGAAAUCAACUGGACAAGCA (listed as RNA, chemistry not given here) [spacer 6.128, Promoter]', 'label 0'),
  ('GCUCCUGCACAGUCCUCCCC (listed as RNA, chemistry not given here) [spacer 6.161, Exon 1]', 'label 0');

Q: Determine whether this sequence has Secreted PCSK9 no lower than 50 ng/mL: CUCUGCGCGUAAUCUGACGC (listed as RNA, chemistry not given here) [spacer 6.151, Promoter]
A: label 1

Q: Determine whether this sequence has Secreted PCSK9 no lower than 50 ng/mL: UCGGCCUCCGGGUCUCCCAA (listed as RNA, chemistry not given here) [spacer 6.170, Intron 1]
A: label 1

Q: Determine whether this sequence has Secreted PCSK9 no lower than 50 ng/mL: GCCGGGCCCACCUUUUCAGU (listed as RNA, chemistry not given here) [spacer 6.148, Promoter]
A: label 1

###

System: human PCSK9 locus
measurementNotes: Secreted PCSK9 by ELISA (normalized to total cell count) in Huh7 cells transfected with mRNA and gRNA
Type: cell-based
conditionNotes: 50 ng mRNA:25 ng gRNA; paired with LTRP5-ADD-ZIM3 mRNA; Huh7 cells; 6 days post-transfection; relative to non-targeting gRNA control
endpointName: Percent reduction in PCSK9 secretion (%)
Write the value in % as a bare number.

INSERT INTO assay_data (substance, readoutnumber) VALUES
  ('TG-06-343 (guide CCCCAUGUAAGAGAGGAAGU; listed as RNA, chemistry not given here)', 23.67),
  ('TG-06-002 (guide ACCGCUGCGCCAAGGUGCGG; listed as RNA, chemistry not given here)', 0.4),
  ('CGCGCCCUGCUCCUGAACUU (listed as RNA, chemistry not given here) [spacer 6.160, Exon 1]', 74.93),
  ('ACUUUGUUUGCAAAGACCUC (listed as RNA, chemistry not given here) [spacer 6.117, Promoter]', 16.16),
  ('CUCGGAAUCUGCUGUGCAUC (listed as RNA, chemistry not given here) [spacer 6.120, Promoter]', 73.95),
  ('UGGGUCCACCUUGUCUCCUG (listed as RNA, chemistry not given here) [spacer 6.145, Promoter]', 80.8),
  ('TG-06-250 (guide GAUUUGGUUUGGAAAACAUG; listed as RNA, chemistry not given here)', 5.64),
  ('GCCAGGCCGUCCUCCUCGGA (listed as RNA, chemistry not given here) [spacer 6.4, Exon 1]', 33.35),
  ('Non-targeting (guide CGAGACGTAATTACGTCTCG; chemistry not given here)', 0),
  ('GCCGGGCCCACCUUUUCAGU (listed as RNA, chemistry not given here) [spacer 6.148, Promoter]', 13.15);

Q: Requested field: Percent reduction in PCSK9 secretion. Item: AAACUUAGCCUGGACCCCCU (listed as RNA, chemistry not given here) [spacer 6.140, Promoter]
A: 25.04

###

Test system: human PCSK9 locus
measurementNotes: Secreted PCSK9 by ELISA (normalized to total cell count) in Huh7 cells transfected with mRNA and gRNA
Type: cell-based
conditionNotes: averaged from the two doses; paired with LTRP5-ADD-ZIM3 mRNA; Huh7 cells; 6 days post-transfection
endpointName: Average percent reduction in PCSK9 secretion (%)
Write the value in % as a bare number.

# count of solved cases: 3
INSERT INTO measurements (substance, unitofmeasurement, readoutnumber) VALUES
  ('GAGUGAAAUGGCCUGCUCUG (listed as RNA, chemistry not given here) [spacer 6.118, Promoter]', '%', 39.99),
  ('GUGCUCGGGUGCUUCGGCCA (listed as RNA, chemistry not given here) [spacer 6.5, Exon 1]', '%', 5.64),
  ('TG-06-347 (guide CUCCUUCACCCACCUGUGCC; listed as RNA, chemistry not given here)', '%', 47.49);

Consider the record given below.
Q: Requested field: Average percent reduction in PCSK9 secretion. Item: TG-06-343 (guide CCCCAUGUAAGAGAGGAAGU; listed as RNA, chemistry not given here)
A: 8.82

###

Tested on: human PCSK9 locus
measurementNotes: Secreted PCSK9 by ELISA (normalized to total cell count) in Huh7 cells transfected with mRNA and gRNA
Assay type: cell-based
conditionNotes: 25 ng mRNA:12.5 ng gRNA; paired with LTRP5-ADD-ZIM3 mRNA; Huh7 cells; 6 days post-transfection; normalized to total cell count
// not fulfilled strictly below 60 ng/mL in Secreted PCSK9; fulfilled otherwise

Example results:
INSERT INTO results (substance, group) VALUES
  ('AGCCCAGUUAGGAUUUGGGA (listed as RNA, chemistry not given here) [spacer 6.149, Promoter]', 'not fulfilled'),
  ('GCCUCGCCCUCCCCAAACAG (listed as RNA, chemistry not given here) [spacer 6.152, Promoter]', 'not fulfilled'),
  ('TG-06-346 (guide CCCACCUGUGCCGCGGCGAG; listed as RNA, chemistry not given here)', 'fulfilled');

Q: Determine whether this substance has Secreted PCSK9 no lower than 60 ng/mL: TG-06-251 (guide CUCCAGGCCCUCCACCCUCC; listed as RNA, chemistry not given here)
A: not fulfilled

Q: Determine whether this substance has Secreted PCSK9 no lower than 60 ng/mL: TG-06-348 (guide AGGCAUUCACUCCUUCACCC; listed as RNA, chemistry not given here)
A: not fulfilled

Q: Determine whether this substance has Secreted PCSK9 no lower than 60 ng/mL: TG-06-350 (guide GUGUCAUAAAGAAAUUGCCU; listed as RNA, chemistry not given here)
A: fulfilled

###

System: human PCSK9 locus
measurementNotes: Secreted PCSK9 by ELISA (normalized to total cell count) in Huh7 cells transfected with mRNA and gRNA
Type: cell-based
conditionNotes: 50 ng mRNA:25 ng gRNA; paired with LTRP5-ADD-ZIM3 mRNA; Huh7 cells; 6 days post-transfection; relative to non-targeting gRNA control
Procedure: To assess PCSK9 secretion, seeded Huh7 cells were transfected with mRNA encoding a catalytically-active CasX 676, dXR1, or LTRP5-ADD-ZIM3 and a gRNA with scaffold 316 and spacer targeting either the B2M or PCSK9 locus. Media supernatant was harvested at 6, 18, 36, and 87 days post-transfection to assess level of PCSK9 secretion by ELISA. […] As an additional control, PCSK9 secretion was also measured in the media supernatant harvested from wells containing untreated, naïve cells. […]
Consider the cut-off 50%. If the recorded Percent reduction in PCSK9 secretion is strictly smaller, the label is 1; if not, the label is 0.

INSERT INTO measurements (substance, targetorsystem, group) VALUES
  ('AGGGUGUGGGUGCUUGACGC (listed as RNA, chemistry not given here) [spacer 6.154, Promoter]', 'human PCSK9 locus', 0),
  ('TG-06-351 (guide UUAUGACACAGAACUCAUGC; listed as RNA, chemistry not given here)', 'human PCSK9 locus', 1);

Q: Just wondering, is Percent reduction in PCSK9 secretion of GCGCGCCCCUUCACGCGCCC (listed as RNA, chemistry not given here) [spacer 6.159, Exon 1] below 50%?
A: 1

Q: Just wondering, is Percent reduction in PCSK9 secretion of GUUAAUGUUUAAUCAGAUAG (listed as RNA, chemistry not given here) [spacer 6.153, Promoter] below 50%?
A: 1

Q: Just wondering, is Percent reduction in PCSK9 secretion of ACUGGCCUUAACCUGGCAGC (listed as RNA, chemistry not given here) [spacer 6.141, Promoter] below 50%?
A: 0

Q: Just wondering, is Percent reduction in PCSK9 secretion of TG-06-345 (guide GCCUCGCCGCGGCACAGGUG; listed as RNA, chemistry not given here) below 50%?
A: 1

Q: Just wondering, is Percent reduction in PCSK9 secretion of UCCCUCUGCGCGUAAUCUGA (listed as RNA, chemistry not given here) [spacer 6.150, Promoter] below 50%?
A: 0

Q: Just wondering, is Percent reduction in PCSK9 secretion of GGGUCUGAGCCUGGAGGAGU (listed as RNA, chemistry not given here) [spacer 6.157, Exon 1] below 50%?
A: 0

Q: Just wondering, is Percent reduction in PCSK9 secretion of AGGGAUUUAUACUACAAAGA (listed as RNA, chemistry not given here) [spacer 6.138, Promoter] below 50%?
A: 0

Q: Just wondering, is Percent reduction in PCSK9 secretion of GCAGCGACGUCGAGGCGCUC (listed as RNA, chemistry not given here) [spacer 6.155, Exon 1] below 50%?
A: 0

Q: Just wondering, is Percent reduction in PCSK9 secretion of UCCUCCUGCCUGGUACACAA (listed as RNA, chemistry not given here) [spacer 6.127, Promoter] below 50%?
A: 0

Q: Just wondering, is Percent reduction in PCSK9 secretion of GAGUGAAAUGGCCUGCUCUG (listed as RNA, chemistry not given here) [spacer 6.118, Promoter] below 50%?
A: 0

Q: Just wondering, is Percent reduction in PCSK9 secretion of TG-06-1046 (guide UCUCUUACAUGGGGGGAAAC; listed as RNA, chemistry not given here) below 50%?
A: 1

Q: Just wondering, is Percent reduction in PCSK9 secretion of AGAAGAUUCAAUUUGCAAAG (listed as RNA, chemistry not given here) [spacer 6.132, Promoter] below 50%?
A: 1
